// pIC50 lookup, one value per entry
System: HCV proteins in Rep5.1 cells (replicon cell line)
Assay Summary: Inhibitory activity of HCV: cell-based ELISA in replicon cell line Rep5.1 (decrease of HCV proteins)
Parameters: species or system hepatitis C virus
Conditions: Hepatitis C virus, 72 h, Rep5.1 cells, 72 hours with drug, decrease of HCV proteins measured by HCV antibody; Table 1; read-out: Level (IC50 values classified)
pIC50: −log10 of the molar value.

[ask] Return pIC50 for the following compound: COc1ccc(Cl)cc1COC(=O)C1=C(C)NC(=S)NC1CF (centres unmarked) [36′]
[reply] 5.00 to 6.00

====

Tested on: HCV proteins in Rep5.1 cells (replicon cell line)
Assay Summary: Inhibitory activity of HCV: cell-based ELISA in replicon cell line Rep5.1 (decrease of HCV proteins)
Parameters: species or system hepatitis C virus
Conditions: Hepatitis C virus, 72 h, Rep5.1 cells, 72 hours with drug, decrease of HCV proteins measured by HCV antibody; Table 1; read-out: Level (IC50 values classified)
Quantity Name: IC50

| Molecule | Test Result |
| --- | --- |
| COc1ccc(COC(=O)C2=C(C)NC(=S)NC2)cc1 | 1000 to 10000 nM |
| CC1=C(C(=O)OC(C)Cc2ccsc2Br)C(CF)NC(=S)N1 (stereo not drawn) | < 1000 nM |
| CC1=C(C(=O)OCCc2ccc(Cl)s2)C(CO)NC(=S)N1 (stereo not drawn) | 1000 to 10000 nM |

[ask] Recall the reported IC50 of CC1=C(C(=O)OCCc2ccc(C)c(F)c2)C(CO)NC(=S)N1 (stereo not drawn) when tested on HCV proteins in Rep5.1 cells (replicon cell line).
[reply] < 1000 nM

[ask] Fetch value of IC50 on HCV proteins in Rep5.1 cells (replicon cell line) for CC1=C(C(=O)OCCc2ccsc2)C(CO)NC(=S)N1 (stereo not drawn) .
[reply] 1000 to 10000 nM

[ask] Supply IC50 measured with HCV proteins in Rep5.1 cells (replicon cell line) for C=CCC(C=C)OC(=O)C1=C(C)NC(=S)NC1 (stereo not drawn) .
[reply] 1000 to 10000 nM

[ask] Specify IC50 for CCOc1ccccc1CCOC(=O)C1=C(C)NC(=S)NC1CF (stereo not drawn) , system HCV proteins in Rep5.1 cells (replicon cell line).
[reply] > 20000 nM

[ask] Look up and report IC50, with HCV proteins in Rep5.1 cells (replicon cell line) as system, for CC1=C(C(=O)OCc2cccc(SC(F)(F)F)c2)CNC(=S)N1
[reply] < 1000 nM

[ask] Report IC50 from HCV proteins in Rep5.1 cells (replicon cell line) testing of CC1=C(C(=O)OCCc2ccc([N+](=O)[O-])cc2)CNC(=S)N1
[reply] 1000 to 10000 nM

[ask] Please respond with reported IC50 (system HCV proteins in Rep5.1 cells (replicon cell line)) for CC1=C(C(=O)OCc2cccc(SC(F)(F)F)c2)C(CF)NC(=S)N1 (stereo not drawn) .
[reply] < 1000 nM

[ask] Print HCV proteins in Rep5.1 cells (replicon cell line) IC50 for C=C(C)[C@@H]1CC=C(COC(=O)C2=C(C)NC(=S)NC2)CC1 .
[reply] < 1000 nM

[ask] Supply IC50 measured with HCV proteins in Rep5.1 cells (replicon cell line) for CC1=C(C(=O)SCc2ccco2)C(CF)NC(=S)N1 (stereo not drawn) .
[reply] 1000 to 10000 nM

====

Below, each entry is listed with its recorded IC50.
Tested on: HCV proteins in Rep5.1 cells (replicon cell line)
Assay Summary: Inhibitory activity of HCV: cell-based ELISA in replicon cell line Rep5.1 (decrease of HCV proteins)
Design: species or system hepatitis C virus
Conditions: Hepatitis C virus, 72 h, Rep5.1 cells, 72 hours with drug, decrease of HCV proteins measured by HCV antibody; Table 1; read-out: Level (IC50 values classified)
Protocol: In order to, screen and evaluate the anti-HCV therapeutic agents in cell level, the following experiments are carried out using a replicon cell line, Rep5.1 [Lohmann, et al., Replication of subgenomic hepatitis C virus RNAs in a hepatoma cell line. […] Rep5.1 cells, the replicon cell line, are cultured in DMEM-10 containing 500 μg/ml of G418. […] After 72 hours, the remaining cells are fixed by methanol/acetone (50/50, v/v), and the decrease of HCV proteins is measured by using HCV antibody. […]

Below: 6 compounds and their reported IC50.
| Compound | Quantity Name | Test Result |
| --- | --- | --- |
| CC1=C(C(=O)OCCc2ccsc2)C(COCc2ccccc2)NC(=S)N1 (centres unmarked) [Compound 272] | IC50 | > 20 µM |
| CCOc1ccc(COC(=O)C2=C(C)NC(=S)NC2)cc1 [Compound 71] | IC50 | 1 to 10 µM |
| CC1=C(C(=O)OCCc2ccccc2Cl)CNC(=S)N1 [Compound 118] | IC50 | < 1 µM |
| CC1=C(C(=O)OCCc2ccc(OCc3ccccc3)cc2)C(CO)NC(=S)N1 (centres unmarked) [27″] | IC50 | < 1 µM |
| CC1=C(C(=O)OCCCCCCCCCC(=O)O)CNC(=S)N1 [20′] | IC50 | > 20 µM |
| CC1=C(C(=O)OCCc2ccc(N(C)C)cc2)CNC(=S)N1 [Compound 95] | IC50 | < 1 µM |

[ask] Determine reported IC50 for CC1=C(C(=O)OCn2nnc3ccccc32)CNC(=S)N1 [Compound 225] ; test system: HCV proteins in Rep5.1 cells (replicon cell line).
[reply] > 20 µM

[ask] Report its IC50 with HCV proteins in Rep5.1 cells (replicon cell line) as the test system: CCCN(c1ccc(CCOC(=O)C2=C(C)NC(=S)NC2CO)cc1[N+](=O)[O-])C1CC1 (centres unmarked) [95″]
[reply] < 1 µM

====

System: HCV proteins in Rep5.1 cells (replicon cell line)
Assay Summary: Inhibitory activity of HCV: cell-based ELISA in replicon cell line Rep5.1 (decrease of HCV proteins)
Parameters: species or system hepatitis C virus
Conditions: Hepatitis C virus, 72 h, Rep5.1 cells, 72 hours with drug, decrease of HCV proteins measured by HCV antibody; Table 1; read-out: Level (IC50 values classified)
pIC50: −log10 of the molar value.
# pIC50 per entry

Consider the reported pIC50 for these compounds:
| Compound | Test Result |
| --- | --- |
| CC1=C(C(=O)OCc2cc(Br)cs2)CNC(=S)N1 | > 6.00 |
| CC1=C(C(=O)OCc2cccs2)CNC(=S)N1 | 5.00 to 6.00 |
| CCNC(=O)OCC1NC(=S)NC(C)=C1C(=O)OCCCc1cccs1 (centres unmarked) | < 4.70 |
| CC1=C(C(=O)OCc2ccc(C)cc2)CNC(=S)N1 | > 6.00 |

[ask] State its pIC50 for this compound: CC1=C(C(=O)OCCCc2ccc(OCc3ccccc3)cc2)CNC(=S)N1
[reply] > 6.00

[ask] Look up pIC50 of CC1=C(C(=O)OCCc2ccsc2)[C@@H](CF)NC(=S)N1 and report it.
[reply] 5.00 to 6.00

[ask] Provide only the value of recorded pIC50 for CCc1ccc(CCOC(=O)C2=C(C)NC(=S)NC2CO)o1 (centres unmarked)
[reply] 5.00 to 6.00

[ask] Give a short answer stating reported pIC50 for CC1=C(C(=O)OCc2cccc(F)c2)CNC(=S)N1 .
[reply] > 6.00

====

Test system: HCV proteins in Rep5.1 cells (replicon cell line)
Assay Summary: Inhibitory activity of HCV: cell-based ELISA in replicon cell line Rep5.1 (decrease of HCV proteins)
Set-up: species or system hepatitis C virus
Conditions: Hepatitis C virus, 72 h, Rep5.1 cells, 72 hours with drug, decrease of HCV proteins measured by HCV antibody; Table 1; read-out: Level (IC50 values classified)
Quantity Name: IC50

# annotated cases, reported IC50 shown
| Molecule | IC50 |
| --- | --- |
| O=C(OCc1ccccc1)C1=C(C(F)(F)F)NC(=S)NC1 | > 20 µM |
| CC1=C(C(=O)OCCCc2ccsc2F)C(CO)NC(=S)N1 (centres unmarked) | 1 to 10 µM |
| CC1=C(C(=O)OCc2cnc(-c3cccs3)s2)CNC(=S)N1 | 1 to 10 µM |

[ask] Please report the measured IC50 for CC1=C(C(=O)OCc2noc(C)n2)CNC(=S)N1
[reply] > 20 µM

[ask] State its IC50 for this molecule: CC1=C(C(=O)OCCC2CC2)CNC(=S)N1
[reply] 1 to 10 µM

[ask] Tell me IC50 reported for CCCOc1ccc(COC(=O)C2=C(C)NC(=S)NC2)cc1
[reply] < 1 µM

====

Recorded IC50 values for a group of molecules are listed next.
Tested on: HCV proteins in Rep5.1 cells (replicon cell line)
Assay Summary: Inhibitory activity of HCV: cell-based ELISA in replicon cell line Rep5.1 (decrease of HCV proteins)
Parameters: species or system hepatitis C virus
Conditions: Hepatitis C virus, 72 h, Rep5.1 cells, 72 hours with drug, decrease of HCV proteins measured by HCV antibody; Table 1; read-out: Level (IC50 values classified)

[ask] Respond only with IC50 recorded for CC1=C(C(=O)OCc2c(C)cc(C)cc2C)CNC(=S)N1
[reply] 1000 to 10000 nM

[ask] Answer with the recorded IC50 for the molecule listed here: CC1=C(C(=O)OCc2ccc(O)cc2)CNC(=S)N1
[reply] > 20000 nM

[ask] # return recorded IC50 for input CC1=C(C(=O)OCCc2cccc([N+](=O)[O-])c2)C(COC(=O)OCC2COC(C)(C)O2)NC(=S)N1 (stereo not drawn)
[reply] 1000 to 10000 nM

[ask] Could you please provide reported IC50 for CC1=C(C(=O)OCC2CCCCC2)CNC(=S)N1 ? Thanks!
[reply] < 1000 nM
